Tested on: human cervical carcinoma HeLa cells
test details: Cytotoxicity by spectrophotometric MTT method on HeLa cells
Type: cell-based
conditions: HeLa parental cells, MTT; Table 3; read-out: IC50
assay endpoint: pIC50
Remember the convention: pIC50 equals -log10 of concentration in molar.

Problem: What measured pIC50 goes with O=[N+]([O-])c1ccc(N=NNc2ccc([N+](=O)[O-])cc2Br)c(Br)c1 [VM-94c] ?
Solution: 5.47

====

System: HeLa CK cells resistant to cisplatin and cross-resistant to vincristine and methotrexate
test details: Cytotoxicity by MTT method on HeLa CK resistant sub-line
Assay type: cell-based, human
conditions: Table 3
assay endpoint: pIC50
To interpret pIC50, take it as minus log10 of a concentration measured in moles per litre.

Problem: Can you look up the measured pIC50 of O=[N+]([O-])c1ccc(N=NNc2ccc([N+](=O)[O-])cc2Br)c(Br)c1 [VM-94c] for me?
Solution: 5.41

====

Tested on: human cervical carcinoma HeLa cells
test details: Cytotoxicity by spectrophotometric MTT method on HeLa cells
Format: cell-based
conditions: HeLa, MTT; Table 2; read-out: IC50
assay endpoint: pIC50
The read-out pIC50 is expressed as -log10 of concentration in moles per litre.

Problem: pIC50 for O=[N+]([O-])c1ccc(N=NNc2ccc([N+](=O)[O-])cc2Br)c(Br)c1 [VM-94c] ?
Solution: 5.44

====

Test system: human cervical carcinoma HeLa cells
test details: Cytotoxicity by spectrophotometric MTT method on HeLa cells
Format: cell-based
conditions: HeLa cells, MTT, 72 hours; Table 1; listed as VM 94c; read-out: Cytotoxicity (IC50 μM)
assay endpoint: IC50 (µM)
Give just the numeric value; µM need not be written.

Problem: GET /values?readout=IC50&item= O=[N+]([O-])c1ccc(N=NNc2ccc([N+](=O)[O-])cc2Br)c(Br)c1 [VM-94c]
Solution: 3.65
